- study-system: human ether-à-go-go-related gene (hERG) potassium channel (human, UniProt Q12809);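 note: peak tail current of the secondary pulse compared with the same well before compound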
- Sequence (Q12809 whole entry, looked up): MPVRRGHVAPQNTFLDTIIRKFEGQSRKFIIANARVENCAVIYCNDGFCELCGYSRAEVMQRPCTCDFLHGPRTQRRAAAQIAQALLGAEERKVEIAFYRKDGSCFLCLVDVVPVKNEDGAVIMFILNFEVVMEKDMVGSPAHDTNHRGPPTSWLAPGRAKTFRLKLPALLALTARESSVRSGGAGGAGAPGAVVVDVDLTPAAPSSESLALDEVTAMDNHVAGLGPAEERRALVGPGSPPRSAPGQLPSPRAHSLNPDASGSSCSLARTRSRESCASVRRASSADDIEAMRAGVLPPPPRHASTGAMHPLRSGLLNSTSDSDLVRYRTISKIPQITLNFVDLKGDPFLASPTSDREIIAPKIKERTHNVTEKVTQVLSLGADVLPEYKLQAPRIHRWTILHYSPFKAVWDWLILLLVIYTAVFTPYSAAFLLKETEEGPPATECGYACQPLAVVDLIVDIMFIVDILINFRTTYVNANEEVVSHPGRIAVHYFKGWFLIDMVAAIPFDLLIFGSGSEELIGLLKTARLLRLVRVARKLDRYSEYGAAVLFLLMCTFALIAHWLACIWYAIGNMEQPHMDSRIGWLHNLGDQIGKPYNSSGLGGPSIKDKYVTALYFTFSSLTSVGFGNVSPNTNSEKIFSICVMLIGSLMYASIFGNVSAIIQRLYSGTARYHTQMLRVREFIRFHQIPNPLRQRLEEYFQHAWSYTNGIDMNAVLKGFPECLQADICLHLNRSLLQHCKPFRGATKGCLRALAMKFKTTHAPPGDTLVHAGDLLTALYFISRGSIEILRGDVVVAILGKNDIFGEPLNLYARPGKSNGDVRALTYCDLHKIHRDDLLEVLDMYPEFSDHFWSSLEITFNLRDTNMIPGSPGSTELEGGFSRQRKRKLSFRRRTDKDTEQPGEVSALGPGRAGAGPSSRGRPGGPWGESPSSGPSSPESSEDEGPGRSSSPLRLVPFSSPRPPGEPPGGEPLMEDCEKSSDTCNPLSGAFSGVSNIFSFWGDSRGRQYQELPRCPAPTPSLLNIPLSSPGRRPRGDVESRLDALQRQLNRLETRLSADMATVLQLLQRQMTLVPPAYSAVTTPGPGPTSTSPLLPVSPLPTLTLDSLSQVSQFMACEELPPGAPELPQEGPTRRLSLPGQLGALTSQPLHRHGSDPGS
- method: primary screen, population patch clamp on CHO cells stably expressing hERG; higher = less effect of the substance
The whole screen tested about 310,000 compounds, of which about 14,000 (4.5%) showed an effect of 50% or more. Effects have a minus sign here. Shown is part of a subset that was picked to be rich in strong results.
measure-name: hERG current change (%, negative = inhibition) at 10uM (%)
Respond with the bare value in %.

Challenge: Give its hERG current change (%, negative = inhibition) at 10uM value. Item: O=[N+]([O-])c1cc(C(F)(F)F)ccc1Sc1nccn1Cc1ccccc1
Response given: -30.3

Challenge: Give its hERG current change (%, negative = inhibition) at 10uM value. Item: CS(=O)(=O)c1ccc(N2CCN(c3ccccn3)CC2)c([N+](=O)[O-])c1
Response given: -55

Challenge: Give its hERG current change (%, negative = inhibition) at 10uM value. Item: CN1CCN(c2ccc(S(=O)(=O)N3CCCCC3)cc2[N+](=O)[O-])CC1
Response given: -48

Challenge: Give its hERG current change (%, negative = inhibition) at 10uM value. Item: O=[N+]([O-])c1ccc(Sc2nccn2Cc2ccccc2)cc1
Response given: -59.5

Challenge: Give its hERG current change (%, negative = inhibition) at 10uM value. Item: O=C(c1ccc(N2CCOCC2)c([N+](=O)[O-])c1)N1CCN(S(=O)(=O)c2cccs2)CC1
Response given: -47.3

###

For each of the molecules below, state its hERG current change (%, negative = inhibition) at 10uM.
- study-system: human ether-à-go-go-related gene (hERG) potassium channel (human, UniProt Q12809);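 note: peak tail current of the secondary pulse compared with the same well before compound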
- method: primary screen, population patch clamp on CHO cells stably expressing hERG; higher = less effect of the substance
Screen size: about 310,000 compounds; about 14,000 (4.5%) showed an effect of 50% or more. The effect is printed as a negative number. What follows is part of a selection rich in strong results, with near analogues and random picks from the rest.
Respond with the bare value in %.

Challenge: Give its hERG current change (%, negative = inhibition) at 10uM value. Item: CC1=NN(c2ccc(Cl)cc2)C(=O)C1
Response given: 3.77

Challenge: Give its hERG current change (%, negative = inhibition) at 10uM value. Item: CC(C)[C@H](NC(=O)c1ccco1)C(=O)NCc1ccccc1
Response given: 25.1

Challenge: Give its hERG current change (%, negative = inhibition) at 10uM value. Item: Cc1cccc(N2CCN(C(=O)CSCc3c(C)noc3C)CC2)c1C
Response given: -14.9

Challenge: Give its hERG current change (%, negative = inhibition) at 10uM value. Item: O=C(NCCN1C(=O)S/C(=C\c2cccs2)C1=O)c1ccc(=O)[nH]c1
Response given: -15.5

Challenge: Give its hERG current change (%, negative = inhibition) at 10uM value. Item: Cc1noc(C)c1CSCC(=O)N1CCN(c2ccc([N+](=O)[O-])cc2)CC1
Response given: -76.8

Challenge: Give its hERG current change (%, negative = inhibition) at 10uM value. Item: CNc1c([N+](=O)[O-])cnn1-c1cccc(Cl)n1
Response given: 14.4

###

- study-system: human ether-à-go-go-related gene (hERG) potassium channel (human, UniProt Q12809);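 note: peak tail current of the secondary pulse compared with the same well before compound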
- method: primary screen, population patch clamp on CHO cells stably expressing hERG; higher = less effect of the substance
- Procedure: Briefly, Chinese hamster ovary (CHO) cells stably expressing the hERG channel were dislodged from tissue culture flasks and dispensed into PPC plates. […] During the recording, background leak currents were estimated by a 100 ms step to -80 mV from an initial holding potential of -70 mV and subtracted from the subsequent current measurement. The campaign was conducted in two phases using slight differences in recording protocol. […]
Out of some 310,000 compounds screened, about 14,000 (4.5%) showed an effect of 50% or more. The effect is printed as a negative number. The full list was thinned out, with strong results kept by preference.
measure-name: hERG current change (%, negative = inhibition) at 10uM (%)
Respond with the bare value in %.

Challenge: Notebook: pull reported hERG current change (%, negative = inhibition) at 10uM for human ether-à-go-go-related gene (hERG) potassium channel (human, UniProt Q12809), entry COC(=O)c1sc2nc(SCc3cccc(Cl)c3)n(N)c(=O)c2c1C
Response given: 1.39

Challenge: Notebook: pull reported hERG current change (%, negative = inhibition) at 10uM for human ether-à-go-go-related gene (hERG) potassium channel (human, UniProt Q12809), entry O=C(Nc1cccc(-c2ccc(N3CCOCC3)nn2)c1)c1ccc(Cl)cc1
Response given: -3.12

Challenge: Notebook: pull reported hERG current change (%, negative = inhibition) at 10uM for human ether-à-go-go-related gene (hERG) potassium channel (human, UniProt Q12809), entry OCCN(Cc1ccccc1)Cc1ccc(C(F)(F)F)cc1
Response given: -3.33

Challenge: Notebook: pull reported hERG current change (%, negative = inhibition) at 10uM for human ether-à-go-go-related gene (hERG) potassium channel (human, UniProt Q12809), entry COc1ccc(Nc2nc(-c3cc4cccc(OC)c4oc3=O)cs2)cc1
Response given: 11.6

Challenge: Notebook: pull reported hERG current change (%, negative = inhibition) at 10uM for human ether-à-go-go-related gene (hERG) potassium channel (human, UniProt Q12809), entry COc1ccc(C2C(C(=O)Nc3ccc(OC)c(OC)c3)c3ccccc3C(=O)N2C)cc1 (stereo not drawn)
Response given: 27.7

Challenge: Notebook: pull reported hERG current change (%, negative = inhibition) at 10uM for human ether-à-go-go-related gene (hERG) potassium channel (human, UniProt Q12809), entry COc1cccc(N2C(=O)C3CCCN3C2c2ccc(Cl)cc2)c1 (stereo not drawn)
Response given: -1.05

Challenge: Notebook: pull reported hERG current change (%, negative = inhibition) at 10uM for human ether-à-go-go-related gene (hERG) potassium channel (human, UniProt Q12809), entry Cc1cc(C(=O)N/N=C/c2ccc(OC(=O)c3ccccc3Br)cc2)n[nH]1
Response given: 3.23

Challenge: Notebook: pull reported hERG current change (%, negative = inhibition) at 10uM for human ether-à-go-go-related gene (hERG) potassium channel (human, UniProt Q12809), entry COC(=O)C1=C(c2ccc(S(C)(=O)=O)cc2)C[C@@H]2CC[C@H]1N2C(=O)N1CCCCC1
Response given: -1.44

Challenge: Notebook: pull reported hERG current change (%, negative = inhibition) at 10uM for human ether-à-go-go-related gene (hERG) potassium channel (human, UniProt Q12809), entry COc1ccc2cc(S(=O)(=O)Nc3ccccn3)ccc2c1
Response given: 9.87

###

- study-system: human ether-à-go-go-related gene (hERG) potassium channel (human);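 note: peak tail current of the secondary pulse compared with the same well before compound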
- method: primary screen, population patch clamp on CHO cells stably expressing hERG; higher = less effect of the substance
The whole screen tested about 310,000 compounds, of which about 14,000 (4.5%) showed an effect of 50% or more. Effects have a minus sign here. The sample as a whole holds a higher share of strong results than the screen did.
measure-name: hERG current change (%, negative = inhibition) at 10uM (%)
Respond with the bare value in %.

Challenge: Give its hERG current change (%, negative = inhibition) at 10uM value. Item: Cc1ccc(Nc2cc(C)c3c(O)cccc3n2)cc1C.Cl
Response given: 19

Challenge: Give its hERG current change (%, negative = inhibition) at 10uM value. Item: Cc1ccc(Nc2cc(C)c3ccc(O)cc3n2)cc1C.Cl
Response given: -58.5

Challenge: Give its hERG current change (%, negative = inhibition) at 10uM value. Item: Cc1cc(Nc2ccccc2)nc2cc(O)ccc12
Response given: -11.5

Challenge: Give its hERG current change (%, negative = inhibition) at 10uM value. Item: Cc1ccc(-n2c(O)c(C=NCCCn3ccnc3)c(=O)[nH]c2=O)cc1
Response given: 19.6

Challenge: Give its hERG current change (%, negative = inhibition) at 10uM value. Item: CCOC(=O)C1(CC2CCCCO2)CCN(C(=O)Nc2ccc(SC)cc2)CC1 (centres unmarked)
Response given: 2.65
